system: ICS; experiment: qHTS profiling for inhibitors of Plasmodium falciparum proliferation (AID 504749); further: nearly all actives have a fitted effect of over 60% in size; conditions: P. falciparum in erythrocytes, SYBR Green DNA, 72 h; series mostly up to 28.7 µM
Inconclusive results are not listed. The source made the active and inactive calls. The call rests on the fitted dose curve; in most records, active means well fitted inhibition curve with a large enough effect; inconclusive means small, poorly fitted or top-dose-only effect; inactive means flat fitted curve, though single readings scatter.
Respond only with the outcome that fits, drawn from active, inactive

{"molecule": "C#CCN(C)CCCOc1ccc(Cl)cc1Cl", "target-under-test": "ICS", "discrete-label": "inactive"}
{"molecule": "O=C(O)CN(CCN(CC(=O)O)CC(=O)O)CCN(CC(=O)O)CC(=O)O", "target-under-test": "ICS", "discrete-label": "inactive"}
{"molecule": "CC(C)NNC(=O)c1ccncc1", "target-under-test": "ICS", "discrete-label": "inactive"}
{"molecule": "c1cnc(N2CCN(Cc3ccc4c(c3)OCO4)CC2)nc1", "target-under-test": "ICS", "discrete-label": "inactive"}

Next molecule, please.
Lookup: For this molecule, state the assay outcome: `OCCN1CCN(CC/C=C2/c3ccccc3Sc3ccc(C(F)(F)F)cc32)CC1`
Found: active

---

Overview of reported activity, negative = cell killing across a group of compounds:
experiment: Drug repurposing screens with cells derived from glioblastoma tumor samples (AID 1345199); details: GBM patient neurospheres viability, ATP luminescence, 48 h; at 45.9 µM (top of the series); tumour line B; further: on the % scale 0 is the no-effect control and ±100 the full control effect; nearly all actives have a fitted effect of over 40% in size
Results filed as inconclusive are left out.
State just the number; it will be interpreted in %.

{"compound": "CSc1ccc(C(=O)c2[nH]c(=O)[nH]c2C)cc1", "units": "%", "readout-value": -10.8}

The recorded activity, negative = cell killing for `CC(C)[N+](C)(CCOC(=O)C1c2ccccc2Oc2ccccc21)C(C)C` is -4.27

The recorded activity, negative = cell killing for `COc1cc(Cc2cnc(N)nc2N)cc(OC)c1OC` is 10.7

---

system: CP269; assay: qHTS profiling for inhibitors of Plasmodium falciparum proliferation (AID 504749); further: nearly all actives have a fitted effect of over 60% in size; settings: P. falciparum in erythrocytes, SYBR Green DNA, 72 h; series mostly up to 28.7 µM
Results filed as inconclusive are left out. Active and inactive are the calls of the source. Calls come from the whole dose curve; as a rule, active = well fitted inhibition curve with a large enough effect; inconclusive = small, poorly fitted or top-dose-only effect; inactive = flat fitted curve, though single readings scatter.
Respond only with the outcome that fits, drawn from Y for active, N for inactive

Solved entries (count: 6):
{"compound": "O=C(O)CP(=O)(O)O", "discrete-label": "N"}
{"compound": "OCCN1CCN(CC/C=C2/c3ccccc3Sc3ccc(C(F)(F)F)cc32)CC1", "discrete-label": "Y"}
{"compound": "CCn1ccnc1CC1COc2ccccc2O1 (configuration not stated)", "discrete-label": "N"}
{"compound": "CCNC(=O)N1CCN(CCCC(c2ccc(F)cc2)c2ccc(F)cc2)CC1", "discrete-label": "Y"}
{"compound": "O=C1CC2(CCCC2)CC(=O)N1CCCCN1CCN(c2ncccn2)CC1", "discrete-label": "N"}
{"compound": "CCN(CC)CCCN(c1ccccc1)C1Cc2ccccc2C1", "discrete-label": "Y"}

Lookup: For this compound, state the assay outcome: `Cc1nc2c([nH]1)c(=O)n(C)c(=O)n2Cc1ccco1`
Found: N

Lookup: For this compound, state the assay outcome: `COc1ccc(CN(CCN(C)C)c2ccccn2)cc1`
Found: N

Lookup: For this compound, state the assay outcome: `CC(=O)Nc1nnc(S(N)(=O)=O)s1`
Found: N

---

System: AS120
Assay: qHTS profiling for inhibitors of Plasmodium falciparum proliferation (AID 504749); further: nearly all actives have a fitted effect of over 60% in size
Details: P. falciparum in erythrocytes, SYBR Green DNA, 72 h; series mostly up to 28.7 µM
Procedure: NIH National Institute of Allergy and Infectious Diseases [NIAID] NIH Chemical Genomics Center [NCGC] […] Because mature erythrocytes lack DNA, only Plasmodium-derived DNA is detected. NCGC Assay Protocol Summary: The SYBR Green viability assay was adapted from a method described previously (Plouffe et al., 2008). […] The following morning, fluorescence intensity at 485(14) nm excitation and 535(25) nm emission wavelengths was measured on an EnVision (Perkin Elmer) plate reader. […]
Inconclusive results are not listed. Active and inactive are the calls of the source. Calls come from the whole dose curve; as a rule, active = well fitted inhibition curve with a large enough effect; inconclusive = small, poorly fitted or top-dose-only effect; inactive = flat fitted curve, though single readings scatter.
Respond only with the outcome that fits, drawn from T = active, F = inactive

Solved entries (count: 4):
{"molecule": "CCn1ccnc1CC1COc2ccccc2O1 (configuration not stated)", "discrete-label": "F"}
{"molecule": "CCCCNc1ccc(C(=O)OCCN(C)C)cc1", "discrete-label": "F"}
{"molecule": "FC(F)(F)c1ccccc1-n1ccnc1", "discrete-label": "F"}
{"molecule": "COc1ccc(CN(CCN(C)C)c2ccccn2)cc1", "discrete-label": "F"}

Lookup: For this molecule, state the assay outcome: `CN(C)CCOC(=O)COc1ccc(Cl)cc1`
Found: F

Lookup: For this molecule, state the assay outcome: `CCN(CC)CCCN(c1ccccc1)C1Cc2ccccc2C1`
Found: T

Lookup: For this molecule, state the assay outcome: `c1cc(CN2CCCCC2)cc(OCCCNc2nc3ccccc3s2)c1`
Found: T

Lookup: For this molecule, state the assay outcome: `CCOC(=O)c1cnc2c(cnn2CC)c1NN=C(C)C`
Found: F

Lookup: For this molecule, state the assay outcome: `O=C(CCCN1CCC(O)(c2cccc(C(F)(F)F)c2)CC1)c1ccc(F)cc1`
Found: T

---

assay: qHTS for differential inhibitors of proliferation of Plasmodium falciparum line W2 (AID 1883); details: Plasmodium falciparum W2 proliferation inhibition; series mostly up to 28.7 µM;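 further: parasites grown with compound for 72 h before lysis and staining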
Inconclusive results are not listed. Activity calls are given as the source filed them. Calls come from the whole dose curve; as a rule, active = well fitted curve in the direction sought with a large enough effect; inconclusive = small, poorly fitted or top-dose-only effect, or another doubt; inactive = no such curve, though single readings can be large or run the other way.
Respond only with the outcome that fits, drawn from TRUE (active), FALSE (inactive)

Solved entries (count: 5):
{"compound": "CN(C)C/C=C(/c1ccc(Br)cc1)c1cccnc1", "discrete-label": "TRUE"}
{"compound": "CN1CCN(C2=Nc3ccccc3Oc3ccc(Cl)cc32)CC1", "discrete-label": "TRUE"}
{"compound": "C[C@]12C=CC(=O)C=C1CC[C@H]1[C@@H]3C[C@@H](O)[C@](O)(C(=O)CO)[C@@]3(C)C[C@H](O)[C@@]12F", "discrete-label": "FALSE"}
{"compound": "CCN(Cc1ccncc1)C(=O)C(CO)c1ccccc1 (configuration not stated)", "discrete-label": "FALSE"}
{"compound": "CN(C)C(=O)Oc1cccc([N+](C)(C)C)c1", "discrete-label": "FALSE"}

Next compound, please.
Lookup: For this compound, state the assay outcome: `Nc1ncn([C@@H]2O[C@H](CO)[C@@H](O)[C@H]2O)c(=O)n1`
Found: FALSE

---

tested on: CP286; assay: qHTS profiling for inhibitors of Plasmodium falciparum proliferation (AID 504749); further: nearly all actives have a fitted effect of over 60% in size; further: potency means the concentration at half of the fitted maximal effect; conditions: P. falciparum in erythrocytes, SYBR Green DNA, 72 h; series mostly up to 28.7 µM
Records with an inconclusive call do not appear. Activity calls are given as the source filed them. Calls come from the whole dose curve; as a rule, active = well fitted inhibition curve with a large enough effect; inconclusive = small, poorly fitted or top-dose-only effect; inactive = flat fitted curve, though single readings scatter.
parameter-measured: Potency

{"molecule": "COC(=O)[C@@H](N)Cc1ccc(O)c(O)c1", "Potency": "inactive"}
{"molecule": "CCCCCN(CCCCC)C(=O)C(CCC(=O)O)NC(=O)c1ccc(Cl)c(Cl)c1 (configuration not stated)", "Potency": "inactive"}
{"molecule": "CN(C(=O)CCCOc1ccc2[nH]c(=O)ccc2c1)C1CCCCC1", "Potency": "inactive"}
{"molecule": "O=C(O)CN(CCOCCOCCN(CC(=O)O)CC(=O)O)CC(=O)O", "Potency": "inactive"}
{"molecule": "COc1cc(C(=O)OCCCN2CCCN(CCCOC(=O)c3cc(OC)c(OC)c(OC)c3)CC2)cc(OC)c1OC", "Potency": "10 µM (active)"}

The recorded Potency for `Cc1nc2c([nH]1)c(=O)n(C)c(=O)n2Cc1ccco1` is inactive

The recorded Potency for `CN(C)C(=O)Oc1ccc[n+](C)c1` is inactive

The recorded Potency for `CCN(CC)CCNC(=O)c1cc(S(C)(=O)=O)ccc1OC` is inactive

The recorded Potency for `COc1ccc(CN(CCN(C)C)c2ccccn2)cc1` is inactive

---

target: Glutathione peroxidase 1 (Homo sapiens); experiment: Primary qHTS Assay for Inhibitors of Recombinant Selenoprotein Glutathione Peroxidase 1 (GPX1) (AID 1845191); details: recombinant GPX1, GR-coupled NADPH fluorescence, 15 min; series mostly up to 48.8 µM; further: nearly all actives have a fitted effect of over 65% in size
Records with an inconclusive call do not appear. Active and inactive are the calls of the source. Calls come from the whole dose curve; as a rule, active = well fitted inhibition curve with a large enough effect; inconclusive = small, poorly fitted or top-dose-only effect; inactive = flat fitted curve, though single readings scatter.
Respond only with the outcome that fits, drawn from class 1 = active, class 0 = inactive

{"compound": "CNCCC(Oc1ccccc1OC)c1ccccc1 (configuration not stated)", "discrete-label": "class 0"}

Lookup: For this compound, state the assay outcome: `CCCCNc1ccc(C(=O)OCCN(C)C)cc1`
Found: class 0

Lookup: For this compound, state the assay outcome: `Nc1nc(N)c2nc(-c3ccccc3)c(N)nc2n1`
Found: class 1

Lookup: For this compound, state the assay outcome: `CCCN1C[C@H](CSC)C[C@@H]2c3cccc4[nH]cc(c34)C[C@H]21`
Found: class 0

Lookup: For this compound, state the assay outcome: `CN(C)CCCN1c2ccccc2Sc2ccccc21`
Found: class 0

Lookup: For this compound, state the assay outcome: `C[C@]12C=CC(=O)C=C1CC[C@H]1[C@@H]3C[C@@H](O)[C@](O)(C(=O)CO)[C@@]3(C)C[C@H](O)[C@@]12F`
Found: class 0

Lookup: For this compound, state the assay outcome: `C[N+](C)(C)CCOC(=O)CCC(=O)OCC[N+](C)(C)C`
Found: class 0

Lookup: For this compound, state the assay outcome: `Brc1c(NC2=NCCN2)ccc2nccnc12`
Found: class 0

Lookup: For this compound, state the assay outcome: `Cc1ccc(=O)n(-c2ccccc2)c1`
Found: class 0
